From: PubChem BioAssay (NCI)

Listed here are compounds together with their documented TGI.
Tested on: U251 CNS
Test Details: NCI tumour cell line growth inhibition, 48 h

Compound: CCCC1CC(=O)NC(=O)C1C(=O)OC(C)(C)C (centres undefined)
TGI: > 100 µM
--
Compound: COc1ccc(C(=NN=C(N)N)c2ccc(OC)cc2)cc1
TGI: 14.1 µM
--
Compound: O=C(OCCCl)C1OC(n2cc(F)c(=O)[nH]c2=O)CC1O (centres undefined)
TGI: > 100 µM
--
Compound: CCOC(=O)CC[C@H](NC(=O)N[C@H](C)c1ccccc1)C(=O)OCC
TGI: > 100 µM
--
Compound: O=C(Cc1nc2ccccc2o1)C(=O)Nc1cccc(Cl)c1
TGI: > 100 µM
--
Compound: COc1ccc2c3c1OC1C(OC)(OC)C=C[C@@]4(Br)[C@@H](C2)N(CC2CC2)CC[C@]314 (some centres undefined)
TGI: > 100 µM
--
Compound: COc1cc(/C=C/c2cc(/C=C/c3ccc(O)c(OC)c3)n(C(=O)Nc3ccccc3Cl)n2)ccc1O
TGI: 1.51 µM
--
Compound: OCC[N+]12CCCN1CCC2
TGI: > 100 µM
--
Compound: COc1ccc(CCN(CC(=O)N(CC(N)=O)C2CCC[C@@H]2OCc2ccccc2)C(=O)CN(C(=O)CN(CCc2ccc(Cl)cc2)C(=O)CN(C(=O)CN(C)Cc2ccccc2F)[C@H](C)C2CCCCC2)[C@H](C)C2CCCCC2)cc1OC (some centres undefined)
TGI: 17.7 µM

###

Test system: A498 renal
Test Details: NCI tumour cell line growth inhibition, 48 h
Listed here are molecules together with their documented TGI.

Molecule: Cc1[nH]c(=O)[nH]c(=O)c1/C=C/C(=O)NC(CO)CS(=O)CS(C)=O (configuration not stated)
TGI: 130 µM
--
Molecule: CCC/C(Cl)=N/OC(=O)Nc1cc(C(F)(F)F)ccc1OC
TGI: 28.4 µM
--
Molecule: CN(Cc1cn(O)c2nc(=N)nc(N)c-2n1)c1ccc(C(=O)NC23CC4CC(CC(C4)C2)C3)cc1
TGI: 57.1 µM
--
Molecule: CCC1C(C(=O)Nc2ccccc2C)=C(C)NC(C)=C1c1ccccc1C (configuration not stated)
TGI: > 100 µM
--
Molecule: COc1cc([N+](=O)[O-])c(OC)cc1-c1nc2sc(C)cn2c1/C(N)=N/C(=N)N
TGI: 69.1 µM
--
Molecule: c1cc2nnsc2s1
TGI: > 100 µM
--
Molecule: Cc1ccc2cccc(OC(=O)Nc3cccc(C(F)(F)F)c3)c2n1
TGI: 9.46 µM
--
Molecule: CC1=NN(C(=O)Nc2ccc(Cl)cc2)C(=O)C2CCC(=O)N12 (configuration not stated)
TGI: > 100 µM
--
Molecule: CC1C(=O)CC(c2cccs2)N(N=O)C1c1cccs1 (configuration not stated)
TGI: > 70.9 µM
--
Molecule: Clc1cc(Cl)c2cc3cccc[n+]3cc2c1Cl
TGI: 34 µM
--
Molecule: Cc1cc(C)nc(NS(=O)(=O)c2ccc(Nc3c4ccccc4nc4c(C(=O)NC(CO)(CO)CO)cccc34)cc2)n1
TGI: > 100 µM
--
Molecule: OC[C@H]1NC[C@@H](O)[C@@H](O)[C@H]1O
TGI: > 100 µM
--
Molecule: O=C(O)c1ccccc1CC1Cc2cc3c(cc2C1)CCC3
TGI: > 100 µM
--
Molecule: COC(=O)c1cc(=O)n(-c2ccc3nn(C)nc3c2)cc1C(=O)OC
TGI: > 100 µM
--
Molecule: C/C(N)=C/C(=O)c1[nH]c(C(=O)O)cc1C1CCN(Cc2ccccc2)C1=O (configuration not stated)
TGI: > 100 µM
--
Molecule: S=c1c2[nH]cnc2ncn1CCSC1=NC=NC2=NC=NC21 (configuration not stated)
TGI: > 100 µM
--
Molecule: NS(=O)(=O)c1ccc(NC(=O)Cc2nc3ccccc3s2)cc1
TGI: 36.8 µM
--
Molecule: CC(C)(C)c1ccc2c(c1)C#Cc1cc(C(C)(C)C)ccc1OCCCO2
TGI: > 100 µM
--
Molecule: Nc1ccc(O)c2c1C(=O)c1c(N)ccc(O)c1C2=O
TGI: > 100 µM
--
Molecule: COc1ccc(C(=O)c2c3cc(OC)c(OC)c(OC)c3cc[n+]2C)cc1
TGI: > 100 µM
--
Molecule: Cc1[nH]c2ccccc2c1CC/C(=N\Nc1ccccc1)c1ccccc1
TGI: > 100 µM
--
Molecule: O=C(O)CC(NC(=O)/C(=C/c1ccccc1)NC(=O)c1ccccc1)C(=O)O (configuration not stated)
TGI: > 100 µM

###

Test system: SNB-19 CNS
Test Details: NCI tumour cell line growth inhibition, 48 h

Compound: C/C(N)=C/C(=O)c1[nH]c(C(=O)O)cc1C1CCN(Cc2ccccc2)C1=O (stereo not drawn)
TGI: > 100 µM

Compound: O=C1CC(c2ccccc2)Cc2nc3ccc(Br)cc3cc21 (stereo not drawn)
TGI: > 100 µM

Compound: N#CC1=C(N)NC(=S)NC12Nc1ccccc1S2 (stereo not drawn)
TGI: > 100 µM

Compound: Cc1c(/C=N/NC(=S)Nc2ccc(Cl)cc2)c(=O)n(-c2ccccc2)n1C
TGI: > 60.8 µM

Compound: C=CC(=O)NC(N)=NC#N
TGI: 523 µM

Compound: CC(C)(C)C(=O)Nc1cccc2oc(-c3ccccc3)cc12
TGI: > 100 µM

Compound: CCOC(=O)CC1(Cc2ccc(OCc3ccccc3)cc2)C(=O)OC(c2ccccc2)N1C(=O)c1ccccc1 (stereo not drawn)
TGI: > 100 µM

Compound: O=[N+]([O-])c1ccc(N/N=C2/CC3=C2CCCCCCCCCC3)c([N+](=O)[O-])c1
TGI: > 100 µM

###

System: UACC-257 melanoma
Test Details: NCI tumour cell line growth inhibition, 48 h
Listed here are compounds together with their documented TGI.

Compound: Cn1c2c(c3ccccc31)CCN(CCCCN1CCN(c3ccccc3)CC1)C2=O
Target Under Test: UACC-257 melanoma
Comparator: =
TGI, µM: 26.6
--
Compound: NS(=O)(=O)c1ccc(Nc2c3ccccc3nc3c(C(=O)N4CCN(CCO)CC4)cccc23)cc1
Target Under Test: UACC-257 melanoma
Comparator: >
TGI, µM: 100
--
Compound: CC1(C)C2CCC1(C)C(OC(=O)/C=C/C(=O)OC1CC3CCC1(C)C3(C)C)C2 (stereo not given)
Target Under Test: UACC-257 melanoma
Comparator: >
TGI, µM: 100
--
Compound: O=C1C2CCCCC2C(=O)N1n1c(-c2ccccc2)n[nH]c1=O (stereo not given)
Target Under Test: UACC-257 melanoma
Comparator: >
TGI, µM: 100
--
Compound: Clc1cc(Cl)c2cc3cccc[n+]3cc2c1Cl
Target Under Test: UACC-257 melanoma
Comparator: =
TGI, µM: 28.9
--
Compound: O=C(NCCCNCCN1C(=O)c2cccc3cc([N+](=O)[O-])cc(c23)C1=O)c1cc(-c2ccccc2)nc2ccccc12
Target Under Test: UACC-257 melanoma
Comparator: =
TGI, µM: 3.95
--
Compound: O=C(C=P(c1ccccc1)(c1ccccc1)c1ccccc1)CCl
Target Under Test: UACC-257 melanoma
Comparator: =
TGI, µM: 2.59
--
Compound: COc1ccc(NC(C)=O)cc1N1C(=O)/C(=C\c2ccccc2)SC1c1cc(OC)c(OC)c(OC)c1 (stereo not given)
Target Under Test: UACC-257 melanoma
Comparator: >
TGI, µM: 100
--
Compound: CCOC(=O)C1(C#N)C(=O)c2cc[n+](CC[n+]3ccc4c(c3)C(=O)C(C#N)(C(=O)OCC)C4=O)cc2C1=O (stereo not given)
Target Under Test: UACC-257 melanoma
Comparator: >
TGI, µM: 100
--
Compound: CCn1c2ccccc2c(=O)c2c(OC)ccc(OC)c21
Target Under Test: UACC-257 melanoma
Comparator: >
TGI, µM: 100

###

Test system: IGROV1 ovarian
Test Details: NCI tumour cell line growth inhibition, 48 h
Listed here are compounds together with their documented TGI.

Compound: Cc1ccc(C=C2C(Cl)=C(Cl)C(Cl)=C2Cl)cc1
TGI: 1.64 µM

Compound: COc1cc(/C=C/c2cc(/C=C/c3ccc(O)c(OC)c3)n(C(=O)Nc3ccccc3Cl)n2)ccc1O
TGI: 2.39 µM

Compound: Cn1c(=O)c2nc3c(=O)n(C)c(=O)n(CC(N)=O)c3nc2n(C)c1=O
TGI: > 100 µM

Compound: CSc1nn(C)cc2ncnc1-2
TGI: > 100 µM

Compound: CC1C(=O)CC(c2cccs2)N(N=O)C1c1cccs1 (stereo not given)
TGI: > 100 µM

Compound: CC(C)(C)C1CCC2c3c([nH]c4ccccc34)C3C(=O)N(c4ccccc4Cl)C(=O)C3C2C1 (stereo not given)
TGI: > 100 µM

Compound: CCN(CC)CC(C)C(=O)/C=C/c1ccc(C)cc1 (stereo not given)
TGI: 4.86 µM

Compound: C#Cc1cccc(Nc2ncnc3ccc(OCCCCNCCS(C)(=O)=O)cc23)c1
TGI: > 16.3 µM

Compound: COc1ccccc1CC(C)N (stereo not given)
TGI: > 100 µM

Compound: O=C1C(=C([O-])c2ccccc2)C(=O)c2ccccc21.O=C1C(=C([O-])c2ccccc2)C(=O)c2ccccc21.[Mn+2]
TGI: > 100 µM

Compound: Cc1cc2c(c(O)c1-c1c(C)cc(O)c3c1C(=O)C=CC3=O)C(=O)C=CC2=O
TGI: 5.11 µM

Compound: CC(C)(C)c1cc(CCCCCCCC2(CCCCCCCc3cc(C(C)(C)C)cc(C(C)(C)C)c3)OC(COCCOCCCCCC#N)C(COCCOCCCCCC#N)O2)cc(C(C)(C)C)c1 (stereo not given)
TGI: > 100 µM

Compound: COc1cc2oc(-c3ccccc3)cc(=O)c2c(O)c1C
TGI: > 100 µM

Compound: COc1ccc2[nH]c3c(c2c1)CC(=O)N1CCCC(CC3O)C1 (stereo not given)
TGI: > 100 µM

Compound: COc1ccc2c(C)c(Oc3c(Cl)c(Cl)c(O)c(C#N)c3C#N)oc2c1
TGI: > 100 µM

Compound: O=[N+]([O-])c1ccc(N/N=C2/CC3=C2CCCCCCCCCC3)c([N+](=O)[O-])c1
TGI: > 100 µM

Compound: CCc1cnn2c(NCc3ccc[n+]([O-])c3)cc(N3CCCC[C@H]3CCO)nc12
TGI: > 10 µM

Compound: CCOC(=O)C1=C(C)NC(=O)NC1CN1C(=O)c2ccccc2C1=O (stereo not given)
TGI: > 100 µM

Compound: COC(=O)[C@]12CC[C@@H](C)[C@H](C)[C@@H]1C1=CC[C@@H]3[C@@]4(C)C[C@@H](OC(=O)/C=C/c5ccccc5)[C@H](O)[C@@](C)(CO)[C@@H]4[C@H](O)C[C@@]3(C)[C@]1(C)CC2
TGI: 14 µM

Compound: COC(=O)[C@@]1(C)C(=O)CC[C@@H]1C=O
TGI: > 100 µM
